Each recorded value in this set is attributed to BindingDB's records for doi:10.1016/j.chembiol.2005.11.011.

biological target: Cyclin-dependent kinase 2 (Homo sapiens)
pIC50: −log10 of the molar value.
MEASURED_QUANTITY: pIC50

O=[N+]([O-])c1cccc(Nc2nccc(-c3cccc(Cn4cncn4)c3)n2)c1 = 6.60
